Each entry below carries its recorded Hs18S ΔCT.
- Test system: HCT-8 host cells (Hs18S)
- conditionParameters: primary screening at 10 uM, treated vs control
Write the number on its own, no unit after it.

Entry under review: Cc1cc(O)cc(O)c1C(=O)O [ORSELLINIC ACID] . Reported Hs18S ΔCT? -0.25

Continuing:
Entry under review: C=CCCCCCCCCCCCc1ccco1 [AVOCADENOFURAN] . Reported Hs18S ΔCT? -0.41

Further, for C[C@H]1[C@H](C)CC[C@]2(C(=O)O)CC[C@]3(C)C(=CC[C@@H]4[C@@]5(C)C[C@@H](O)[C@H](O)[C@@](C)(CO)[C@@H]5[C@H](O)C[C@]43C)[C@H]12 [MADECASSIC ACID] ? -0.16
